These entries and their values trace back to ChEMBL document CHEMBL4673379.

# System: HEL
# experiment summary: Cytotoxicity against human HEL cells assessed as reduce in cell growth incubated for 3 days by coulter counter analysis
# Format: cell-based
# experimental conditions: 72 h, time 3 day
Criterion: CC50 strictly less than 100 nM. Met: t. Not met: f.

Worked examples follow.
compound: Nc1ccn([C@@H]2O[C@H](CO)[C@@H](O)C2(F)F)c(=O)n1
group label: t
//
compound: C[C@H](NP(=O)(OC[C@@]1(F)O[C@@H](n2ccc(N)nc2=O)C(F)(F)[C@@H]1O)Oc1ccccc1)C(=O)OCc1ccccc1 (stereo partly specified)
group label: f
//
compound: Nc1nc2c(ncn2COCCO)c(=O)[nH]1
group label: f

**Q:** Is CC50 strictly under 100 nM for the entry O=c1[nH]c(=O)n([C@H]2C[C@H](O)[C@@H](CO)O2)cc1/C=C/Br ?
**A:** f

**Q:** Is CC50 strictly under 100 nM for the entry Nc1ccn([C@@H]2O[C@](F)(CO)[C@@H](O)C2(F)F)c(=O)n1 ?
**A:** f

**Q:** Is CC50 strictly under 100 nM for the entry C[C@H](NP(=O)(OC[C@H]1O[C@@H](n2ccc(N)nc2=O)C(F)(F)[C@@H]1O)Oc1ccccc1)C(=O)OCc1ccccc1 (stereo partly specified) [FOSGEMCITABINE PALABENAMIDE] ?
**A:** f
